Cited source for all entries: patent US20260125454A1

TARGET_OR_TEST_SYSTEM: CGRP antigen
ASSAY_SUMMARY: cell-based or functional assay
ASSAY_READOUT: Relative binding activity (%) vs Ref(Teva)

BINDER: C120 (antibody, V domains shown, 2B8-HC1 + 1F5-LC1; chimeric, human constant regions) VH: EVQLQQSGPELVKPGASVKISCKASGYTFTDYNMHWVKQSHGKSLEWIGNIYPYNGGTVYNQKFNNKATLTVHTSSSTAYMDLRSLTSDDSAVYYCAREGLGGYWGQGTTLTVSS VL: DIVLTQSPASLAVSLGQRATISCKASQNIDFDGYAYMNWYQHKPGQPPRVLIYSVFNLESGIPARFSGSGSGTDFTLNIHPVEEEDAATYYCQQSHEVPYTFGGGTNLEIK
MEASURED: 50.3
--
BINDER: C258 (antibody, V domains shown, 3E5-HC + 1F5-LC1; chimeric, human constant regions) VH: EVQLQQSGPELVKPGASVKISCKTSGYTFTDYNMHWVKQSHGKSLEWIGYISPYNGGTAYNQKFKFKSTLTVDTSSSTAYMELRSLTSEDSAVYYCAREGLGGYWGQGTTLTVSS VL: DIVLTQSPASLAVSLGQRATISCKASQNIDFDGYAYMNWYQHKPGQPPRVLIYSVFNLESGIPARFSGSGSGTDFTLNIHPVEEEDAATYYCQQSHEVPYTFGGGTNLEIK
MEASURED: 117
--
BINDER: C255 (antibody, V domains shown, 3E5-HC + 1A2-LC2; chimeric, human constant regions) VH: EVQLQQSGPELVKPGASVKISCKTSGYTFTDYNMHWVKQSHGKSLEWIGYISPYNGGTAYNQKFKFKSTLTVDTSSSTAYMELRSLTSEDSAVYYCAREGLGGYWGQGTTLTVSS VL: DIVLTQSPASLAVSLGQRATISCKASQNIDYDGYAYLNWYQQKPGQPPKVLIYSVFNLESGIPARFSGSGSGTDFTLNIHPVEEEDAATYYCQQSNEFPYTFGGGTKLEVK
MEASURED: 74.9
